This collection of values is drawn from PubChem BioAssay (NCI).

# Test system: NCI-H460 lung
Output constraint: value belongs to t (active), f (inactive)

Look up the recorded call for CCN(CC)CCn1c(=N)n(CC(O)c2ccc(Cl)c(Cl)c2)c2ccccc21 (configuration not stated) in this test. f

Input N#Cc1c(N)nn(C(=O)c2ccc(NC(=O)c3ccccn3)cc2)c1-c1ccc(Cl)cc1 f

Input Cc1nc2c(cnn2-c2ccnc3c(C(F)(F)F)cccc23)c(=O)o1 f

Input O=c1ccc2nc(-c3ccccc3)nn(-c3ccccc3)c-2c1 f

Input CC(C)(O)Cn1c(=O)c(Oc2ccc(F)cc2F)cc2cnc(NC3CCOCC3)nc21 f

Input CCCCc1ccc2nc(NC(=O)OC)[nH]c2c1 t

Input CC[C@]1(O)C[C@@H]2CN(Cc3c([nH]c4ccccc34)[C@@](C(=O)OC)(c3cc4c(cc3OC)N(C)[C@H]3[C@@](O)(C(=O)OC)[C@H](OC(C)=O)[C@]5(CC)[C@@H]6C[C@@H]6CN6CC[C@]43[C@@H]65)C2)C1 t
